drug sensitivity score reference
Test system: FMOC17 (patient-derived low-grade serous ovarian cancer cells)
Test Method Notes: drug sensitivity score (DSS3, normalised partial AUC of % inhibition dose-response) (DSS (score)); higher = more sensitive (stronger inhibition of viability); extreme values may be limits of the assay
Condition: 72 h; library: FO5A; assay format: 2D, 384-well, CellTiter-Glo
Just the number, please, no unit attached.

// below: answered molecules
{"Molecule": "C=CC[C@@H]1/C=C(\\C)C[C@H](C)C[C@H](OC)[C@H]2O[C@@](O)(C(=O)C(=O)N3CCCC[C@H]3C(=O)O[C@H](/C(C)=C/[C@@H]3CC[C@@H](O)[C@H](OC)C3)[C@H](C)[C@@H](O)CC1=O)[C@H](C)C[C@@H]2OC", "Numeric Result": 0.9}
{"Molecule": "O=C1Cc2cc(C(=O)NC3C[C@H]4CC[C@@H](C3)N4S(=O)(=O)CC3CCN(CCCC(F)(F)F)CC3)c(Cl)cc2N1 (some centres undefined)", "Numeric Result": 0}
{"Molecule": "CC[C@H](C)C(=O)O[C@H]1C[C@@H](C)C=C2C=C[C@H](C)[C@H](CC[C@@H]3C[C@@H](O)CC(=O)O3)[C@H]21", "Numeric Result": 1.1}
{"Molecule": "CN(C)C(=O)c1ccc(S(=O)(=O)c2ccc(NC(=O)[C@@](C)(O)C(F)(F)F)c(Cl)c2)cc1", "Numeric Result": 0}

(Q) Please give measured drug sensitivity score of the following entry: CC(O)c1cc(C(=O)N[C@@H](C)Cn2ccc(-c3ccc(C#N)c(Cl)c3)n2)n[nH]1 (some centres undefined)
(A) 0

(Q) Look up and report measured drug sensitivity score for this entry: Nc1cccc2c1C(=O)N(C1CCC(=O)NC1=O)C2=O (centres undefined) [Pomalidomide]
(A) 0

(Q) Annotate the molecule `C[C@]1(c2nc3c(C(N)=O)cccc3[nH]2)CCCN1` with its measured drug sensitivity score.
(A) 0

(Q) Please report drug sensitivity score for the following molecule: `Cc1cccc(CC(=O)N2CCc3c2ccc(-c2cn(C)c4ncnc(N)c24)c3F)n1`
(A) 0
